inhibition values for the molecules below.
# Test system: Human immunodeficiency virus type 1 reverse transcriptase (Human immunodeficiency virus 1), Q72547 [P236L]
# ASSAY_INFO: In vitro Inhibition of mutant P236L reverse transcriptase at a concentration of 50 uM.
Unit % implied. Number only.

# SMILES_ENTRY, inhibition (%)
measured = [
    ("Cc1nn(-c2ccccc2)c(-c2ccccc2)c1CC(=O)O", 0),
    ("CC#Cc1c(C)nn(-c2ccccc2)c1-c1ccccc1", 93),
    ("Cc1nn(-c2ccccc2)c(-c2ccccc2)c1CC#N", 93),
    ("CCc1c(CC(=O)NC)nn(-c2ccccc2)c1-c1ccccc1", 12),
    ("C/N=C(/S)c1c(C)nn(-c2ccccc2)c1-c1ccccc1", 0),
    ("Cc1nn(-c2ccccc2)c(-c2ccccc2)c1C(C)C", 13),
    ("CCc1c(CC(N)=O)nn(-c2ccccc2)c1-c1ccccc1", 52),
    ("Cc1nn(-c2ccccc2)c(-c2ccccc2)c1CCO", 28),
]

Which measured inhibition value corresponds to CNC(=O)c1c(C)nn(-c2ccccc2)c1-c1ccccc1 ?
0

Please give the result for COCc1c(C)nn(-c2ccccc2)c1-c1ccccc1 too.
50

Next molecule: CCc1c(C)nn(-c2ccccc2)c1-c1ccccc1
94

Do the same for Cc1nn(-c2ccccc2)c(-c2ccccc2)c1CC(N)=O please
29

How about this molecule: Cc1nn(-c2ccccc2)c(-c2ccccc2)c1C(=O)O
4

Next molecule: C=Cc1c(C)nn(-c2ccccc2)c1-c1ccccc1
59

Entry to check: Cc1nn(-c2ccccc2)c(-c2ccccc2)c1C
36

###

# TESTED_SYSTEM: Human immunodeficiency virus type 1 reverse transcriptase (Human immunodeficiency virus 1)
# ASSAY_INFO: In vitro inhibition of wild type resistant reverse transcriptase at a concentration of 1 uM.
List of inhibition values.
Kindly provide the numeric value in % only, without the unit symbol.

# SMILES_ENTRY, ASSAY_RESULT
records = [
    ("C=Cc1c(C)nn(-c2ccccc2)c1-c1ccccc1", 3.6),
]

Sample Cc1nn(-c2ccccc2)c(-c2ccccc2)c1CC(=O)O — what was its inhibition?
0

Queued: CCc1c(CC(=O)OC)nn(-c2ccccc2)c1-c1ccccc1
5

Then Cc1nn(-c2ccccc2)c(-c2ccccc2)c1C ?
0

###

# Tested on: Human immunodeficiency virus type 1 reverse transcriptase (Human immunodeficiency virus 1), Q72547 [P236L]
# ASSAY_INFO: In vitro inhibition of mutant P236L reverse transcriptase at a concentration of 1 uM.
ENDPOINT: inhibition (%)
The reply should contain only the number, in %.

Solved entries (count: 8):
# SMILES_ENTRY, inhibition (%)
data = [
    ("C/N=C(/S)c1c(C)nn(-c2ccccc2)c1-c1ccccc1", 0),
    ("C=Cc1c(C)nn(-c2ccccc2)c1-c1ccccc1", 21),
    ("Cc1nn(-c2ccccc2)c(-c2ccccc2)c1C", 0),
    ("Cc1nn(-c2ccccc2)c(-c2ccccc2)c1CC(N)=O", 0),
    ("CCc1c(CC(=O)OC)nn(-c2ccccc2)c1-c1ccccc1", 21),
    ("CCc1c(CC(=O)O)nn(-c2ccccc2)c1-c1ccccc1", 0),
    ("CCc1c(CCOC)nn(-c2ccccc2)c1-c1ccccc1", 15),
    ("CCc1c(CC(=O)NC)nn(-c2ccccc2)c1-c1ccccc1", 6),
]

Reported inhibition, compound Cc1nn(-c2ccccc2)c(-c2ccccc2)c1CC(=O)O : ____
0

Similarly, CCc1c(CCO)nn(-c2ccccc2)c1-c1ccccc1 ?
58

Then this compound: CCc1c(CC(N)=O)nn(-c2ccccc2)c1-c1ccccc1
16

Same again, this time with CCc1c(CC#N)nn(-c2ccccc2)c1-c1ccccc1
14

###

# Tested on: Human immunodeficiency virus type 1 reverse transcriptase (Human immunodeficiency virus 1), Q72547 [P236L]
# ASSAY_INFO: In vitro inhibition of mutant P236L reverse transcriptase at a concentration of 10 uM.
ENDPOINT: inhibition (%)
The answer is to be given in %; state only the numeric part.

Example cases with answers are listed next.
# SMILES_ENTRY, inhibition [%]
data = [
    ("Cc1nn(-c2ccccc2)c(-c2ccccc2)c1CC#N", 77),
    ("CCc1c(C)nn(-c2ccccc2)c1-c1ccccc1", 81),
    ("CCc1c(CCO)nn(-c2ccccc2)c1-c1ccccc1", 84),
    ("CCc1c(CC(=O)NC)nn(-c2ccccc2)c1-c1ccccc1", 8),
    ("CCc1c(CCOC)nn(-c2ccccc2)c1-c1ccccc1", 47),
]

Entry Cc1nn(-c2ccccc2)c(-c2ccccc2)c1CC(=O)O : reported inhibition = ?
0

Input C/N=C(/S)c1c(C)nn(-c2ccccc2)c1-c1ccccc1
0

And the next one, COCc1c(C)nn(-c2ccccc2)c1-c1ccccc1 ?
18

// query: Cc1nn(-c2ccccc2)c(-c2ccccc2)c1CC(N)=O
0

###

# ASSAY_INFO: Effective dose for inhibition of viral replication in cell culture […]
# Format: functional
# EXPERIMENTAL_CONTEXT: read-out: ED50 (the source's name)
Counter-ions that a name gives are not always drawn.
ENDPOINT: pEC50
Note on units: pEC50 is unitless, being -log10 of a concentration expressed in mol/L.

# COMPOUND, ENDPOINT, ASSAY_RESULT
records = [
    ("Cc1ccnc2c1NC(=O)c1cccnc1N2C1CC1", "pEC50", 8.00),
]

Recorded pEC50 of Cc1nn(-c2ccccc2)c(-c2ccccc2)c1CC#N , please.
7.00

And CC(C)Nc1cccnc1N1CCN(C(=O)c2cc3cc(NS(C)(=O)=O)ccc3[nH]2)CC1 [DELAVIRDINE MESYLATE] ?
10.00

###

# TESTED_SYSTEM: Human immunodeficiency virus type 1 reverse transcriptase (Human immunodeficiency virus 1) (UniProt Q72547)
# ASSAY_INFO: In vitro inhibition of wild type resistant reverse transcriptase at a concentration of 10 uM.
ENDPOINT: inhibition (%)
Give just the numeric value; % need not be written.

# SMILES_ENTRY, ENDPOINT, ASSAY_RESULT
records = [
    ("CNC(=O)c1c(C)nn(-c2ccccc2)c1-c1ccccc1", "inhibition", 7),
    ("CCc1c(CC#N)nn(-c2ccccc2)c1-c1ccccc1", "inhibition", 15),
    ("Cc1nn(-c2ccccc2)c(-c2ccccc2)c1CCO", "inhibition", 0),
]

inhibition lookup needed for CCc1c(CC(=O)OC)nn(-c2ccccc2)c1-c1ccccc1 , thanks.
20

Record: CCc1c(CC(N)=O)nn(-c2ccccc2)c1-c1ccccc1
18

Cc1nn(-c2ccccc2)c(-c2ccccc2)c1C(C)C , same question.
18

Can you handle C=Cc1c(C)nn(-c2ccccc2)c1-c1ccccc1 next?
10

// repeat for C/N=C(/S)c1c(C)nn(-c2ccccc2)c1-c1ccccc1 and report
0

Next compound up: Cc1nn(-c2ccccc2)c(-c2ccccc2)c1CC(N)=O
36

###

# TESTED_SYSTEM: UniProt Q72547
# ASSAY_INFO: In vitro ability to inhibit wild type resistant (WT) reverse transcriptase
ENDPOINT: IC50 (µM)
Write the answer as a number in µM, unit excluded.

Known IC50 results, listed for orientation:
# SMILES_ENTRY, IC50 / µM
data = [
    ("CCc1c(C)nn(-c2ccccc2)c1-c1ccccc1", 14.5),
    ("CC#Cc1c(C)nn(-c2ccccc2)c1-c1ccccc1", 13.4),
]

Moving on to the next molecule.
Any idea what its IC50 is? The molecule is Cc1nn(-c2ccccc2)c(-c2ccccc2)c1CC#N
2.31

###

# TESTED_SYSTEM: Human immunodeficiency virus type 1 reverse transcriptase (Human immunodeficiency virus 1, UniProt Q72547, P236L)
# ASSAY_INFO: In vitro ability to inhibit mutant P236L reverse transcriptase
ENDPOINT: IC50 (nM)
Give the value, in units of nM, as a plain number.

Examples with their reported IC50 follow.
# SMILES_ENTRY, IC50 [nM]
data = [
    ("CCc1c(CCO)nn(-c2ccccc2)c1-c1ccccc1", 650),
    ("CC#Cc1c(C)nn(-c2ccccc2)c1-c1ccccc1", 1540),
    ("CCc1c(C)nn(-c2ccccc2)c1-c1ccccc1", 520),
]

Now take the following compound into account.
Quick one: IC50 of Cc1nn(-c2ccccc2)c(-c2ccccc2)c1CC#N ?
1140

###

# TESTED_SYSTEM: Human immunodeficiency virus type 1 reverse transcriptase (Human immunodeficiency virus 1) (UniProt Q72547)
# ASSAY_INFO: In vitro inhibition of wild type resistant reverse transcriptase at a concentration of 50 uM.
inhibition listing for selected molecules.
Provide the measurement as a number trailed by its unit.

For the molecule shown here, CCc1c(CC#N)nn(-c2ccccc2)c1-c1ccccc1 , give the reported inhibition.
39%

Record: C=Cc1c(C)nn(-c2ccccc2)c1-c1ccccc1
18%

Query CCCc1c(C)nn(-c2ccccc2)c1-c1ccccc1 next
49%

Same lookup for CNC(=O)c1c(C)nn(-c2ccccc2)c1-c1ccccc1 , please.
3%
